Origin of the recorded values: PubChem BioAssay AID1671190

TARGET OR TEST SYSTEM: Polyunsaturated fatty acid lipoxygenase ALOX12 (Homo sapiens) (UniProt P18054)
Sequence (P18054 whole entry, looked up): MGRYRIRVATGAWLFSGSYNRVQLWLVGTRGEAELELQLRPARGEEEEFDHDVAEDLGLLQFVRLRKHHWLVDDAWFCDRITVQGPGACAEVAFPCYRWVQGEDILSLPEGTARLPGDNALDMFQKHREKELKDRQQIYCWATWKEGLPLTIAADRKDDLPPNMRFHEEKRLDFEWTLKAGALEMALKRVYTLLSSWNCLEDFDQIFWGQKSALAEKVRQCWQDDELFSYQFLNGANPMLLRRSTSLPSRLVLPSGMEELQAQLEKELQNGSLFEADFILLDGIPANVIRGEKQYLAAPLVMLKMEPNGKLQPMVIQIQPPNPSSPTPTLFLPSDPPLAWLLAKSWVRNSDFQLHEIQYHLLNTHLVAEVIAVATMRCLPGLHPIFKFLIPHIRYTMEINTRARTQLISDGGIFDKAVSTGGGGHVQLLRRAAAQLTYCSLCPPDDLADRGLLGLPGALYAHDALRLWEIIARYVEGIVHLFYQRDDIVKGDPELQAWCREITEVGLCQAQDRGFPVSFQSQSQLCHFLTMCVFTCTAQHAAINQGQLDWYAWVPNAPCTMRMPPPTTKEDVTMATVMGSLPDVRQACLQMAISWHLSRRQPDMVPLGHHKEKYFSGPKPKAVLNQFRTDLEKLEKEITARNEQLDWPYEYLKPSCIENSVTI
ASSAY NAME: Primary qHTS assay for inhibitors of human arachidonate 12S-lipoxygenase (ALOX12): Round 2
RECORDED CONDITIONS: purified 12hLO, xylenol orange hydroperoxide absorbance; series mostly up to 108 µM
In all, about 580,000 compounds went through this assay and about 6,100 (1.1%) were called active. Not shown: some 15% with an inconclusive outcome. Calls come from the whole dose curve; as a rule, active = well fitted inhibition curve with a large enough effect; inconclusive = small, poorly fitted or top-dose-only effect, or another doubt; inactive = no such curve, though single readings can be large or run the other way. This is one part of a sample in which actives are shown more often than they occur.
# valid calls are True for active, False for inactive; nothing else

1. CCOC(=O)Cn1c(=O)n(C2CCCCC2)c2nc(-c3cccc(OC)c3)nc(C(N)=O)c21 :: False

IN: Test call for this compound, please: "O=C(O)COc1ccc2c(=O)c(Oc3ccc(Cl)cc3)coc2c1"
OUT: True

IN: Test call for this compound, please: "O=c1cc(-c2cccnc2)nc2n(Cc3cccc(F)c3)c3ccccc3n12"
OUT: False

IN: Test call for this compound, please: CC(=O)NC(C(=O)NC(C)c1cccc(Cl)c1)C(C)C (stereo not drawn)
OUT: False
